protocol: protein stability index of a GFP-peptide fusion (GPS, HEK-293T) (PSI 1-6); higher = more stable;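 note: 24-mer peptide tiles fused after GFP, lentivirally expressed, FACS-sorted into six equal bins by GFP/DsRed ratio, decoded by Illumina sequencing, PSI is the read-weighted mean bin number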
measurementContext: treatment: DMSO; c terminus: a fixed tail appended
Classify by measured protein stability index: Yes if it is equal to or exceeds 3, No if it is smaller.

macromoleculesequence="SLARLQQLLFVIFLLLYLFTLGTN [OR10K2]" assignedclass=No
macromoleculesequence="LRLHDNPALKECIQGADTIRCVYI [CRY1]" assignedclass=No
macromoleculesequence="VLKKQDAFYKEQLARLEERSSEFY [CHCHD3]" assignedclass=Yes
macromoleculesequence="LVQVTLLDTVELATYCVRTFALYK [PTPRD]" assignedclass=Yes
macromoleculesequence="LVLAIPLLLILVSYVHILSAILQF [OR10K2]" assignedclass=Yes
macromoleculesequence="KALTTLCDLADRELVVIIGWAKHI [ESRRG]" assignedclass=No
macromoleculesequence=VATGSQQSLAQPLPGNTTEATPRS assignedclass=Yes
macromoleculesequence="MTLAYDNGINLFDTAEVYAAGKAE [KCNAB2]" assignedclass=Yes
macromoleculesequence="EQGEPLWTLEDEIHSPAHPEIEKA [ZNF649]" assignedclass=Yes
macromoleculesequence="PNLNETSIVSGGYGGSGDGLIPTG [ARFIP2]" assignedclass=Yes
macromoleculesequence="KAEGGEEDSLGCLTADTKEVTASQ [IRX6]" assignedclass=Yes
macromoleculesequence="RCHRGYTLDPNGKTCSRVDHCAQQ [MATN2]" assignedclass=Yes

----------
protocol: protein stability index of a GFP-peptide fusion (GPS, HEK-293T) (PSI 1-6); higher = more stable
measurementContext: treatment: MLN4924 1 uM, 8 h; c terminus: a fixed tail appended
protein stability index reference
readoutType: protein stability index

macromoleculesequence="SAENGLEKSGFSQHQNKSPPKVKA [DLC1]" readouttype="protein stability index" valuemeasured=5.1
macromoleculesequence="WILFPLLGCYAVYSLLYLEHKGWY [CLPTM1]" readouttype="protein stability index" valuemeasured=3.4
macromoleculesequence="SILNAKAPALPPGGTDPHGYHQVP [FOXJ1]" readouttype="protein stability index" valuemeasured=3.66
macromoleculesequence="SGEDPTAAAPVAEVPTAAGALTPT [CLPTM1]" readouttype="protein stability index" valuemeasured=5.47
macromoleculesequence="CSSKRSSIPLMGFEFEVRVCDSCH [WDFY2]" readouttype="protein stability index" valuemeasured=2.15
macromoleculesequence="FSDLQVYSYRRLGEEALSLQALDP [SLC22A15]" readouttype="protein stability index" valuemeasured=2.84
macromoleculesequence="VPGLLLSYLMLVTVMMWPLAVYHR [RETREG3]" readouttype="protein stability index" valuemeasured=3

----------
protein stability index reference
protocol: protein stability index of a GFP-peptide fusion (GPS, HEK-293T) (PSI 1-6); higher = more stable
measurementContext: treatment: DMSO; c terminus: a fixed tail appended
readoutType: protein stability index

macromoleculesequence="HGIRPPQLEQPEKMPVLKAEASHY [RHOBTB3]" valuemeasured=4.41
macromoleculesequence="CRIQDLCAMEDHNCEQLCVNVPGS [MATN2]" valuemeasured=3.01
macromoleculesequence="TIPASLDLSPLLGFWQLPPPATQN [PLAGL1]" valuemeasured=2.74
macromoleculesequence="ILHTAWHPSENIIAVAATNNLYIF [PPP2R2B]" valuemeasured=3.17
macromoleculesequence="DAASVYTLPAGADFLMCYSVAEGY [CASP6]" valuemeasured=2.34
macromoleculesequence="GKEVSGDQIEDMFEQGKWDVFSEN [STX11]" valuemeasured=4.33
macromoleculesequence="MWLLVSVILISRISSVGGEAMFCD [CFHR2]" valuemeasured=3.35
macromoleculesequence="NVFKELQIMQGLEHPFLVNLWYSF [STK32A]" valuemeasured=2.74
macromoleculesequence="EQSLLSRWNPWSTEVPYATFTEHP [TPRG1]" valuemeasured=3.13
macromoleculesequence="SLISGCPNIQEAVEGAMHIQECVP [CRYL1]" valuemeasured=3.87
macromoleculesequence="EKNNHRAKDLRAPPEQGKIFIARR [SOAT1]" valuemeasured=3.16
macromoleculesequence="EGSIWRGAQMEKEWARALETRDWG [ZSWIM9]" valuemeasured=3.37
macromoleculesequence="KRRRKETSECPSDKDKSPESHKAK [C10orf62]" valuemeasured=5.34
macromoleculesequence="NQEDAIHFHRTLKEACDQHGPDLY [CPOX]" valuemeasured=4.33
macromoleculesequence="DAGEVSYLPRDFSTYRPLPDPSVW [MYORG]" valuemeasured=3.29
macromoleculesequence="LMYPSYTFSGDVQLAQDDIDGIQA [MMP1]" valuemeasured=4.1
macromoleculesequence="GKDEIEAAVKAAREAFPSWSSRSP [ALDH8A1]" valuemeasured=4.5
macromoleculesequence="GKPGDRNCPEFPPPDRTLGCWATD [RSPH3]" valuemeasured=4.03
macromoleculesequence="KEAGLSQSHDDLSNATATPSVRKK [C2CD2L]" valuemeasured=5.44
macromoleculesequence="EFLLDLGHHERSIMTDLYYLSQTD [FUT8]" valuemeasured=2.2
macromoleculesequence="LGGFSHWGRLTSYSGGGYYLDLPG [PKD2L1]" valuemeasured=2.47
macromoleculesequence="EVGDPAPLGAGNLGPELIKESNAN [DPCD]" valuemeasured=5.31
macromoleculesequence="EDQPINLCDKLPPATALGTASYPS [NOL4L]" valuemeasured=4.6
macromoleculesequence="IVITGDADIDHDQALAQAIKEAKE [EPB41L3]" valuemeasured=2.85
macromoleculesequence="PMMKAAMYSVEITVEKDKVTGETR [PALM]" valuemeasured=4.16
macromoleculesequence="QARKALFEKWEQETAAGKGKGEAR [SMTNL2]" valuemeasured=4.84
macromoleculesequence="EEEKLKAEEIRIKGKYNISSEDYR [KCNK9]" valuemeasured=5.21
